Target: T1, full-length human IL-36R on cells (human, UniProt Q9HB29 20-575)
T1 sequence (looked up): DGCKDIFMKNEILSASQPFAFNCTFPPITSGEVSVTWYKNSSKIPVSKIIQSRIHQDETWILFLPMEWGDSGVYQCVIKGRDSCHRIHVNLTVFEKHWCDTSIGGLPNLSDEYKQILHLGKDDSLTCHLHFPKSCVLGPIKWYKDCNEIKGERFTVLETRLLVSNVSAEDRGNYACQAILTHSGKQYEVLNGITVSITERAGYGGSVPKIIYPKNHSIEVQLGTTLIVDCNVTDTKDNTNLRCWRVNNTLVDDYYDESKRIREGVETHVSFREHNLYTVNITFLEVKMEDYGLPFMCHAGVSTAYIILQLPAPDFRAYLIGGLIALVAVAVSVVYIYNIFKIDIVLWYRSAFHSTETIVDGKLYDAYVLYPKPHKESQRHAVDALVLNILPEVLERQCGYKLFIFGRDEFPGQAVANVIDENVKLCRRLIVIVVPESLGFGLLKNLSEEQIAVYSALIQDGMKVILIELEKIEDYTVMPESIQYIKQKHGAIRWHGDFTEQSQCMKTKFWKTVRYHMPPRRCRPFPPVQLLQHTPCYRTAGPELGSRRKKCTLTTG
Experiment: cell-based or functional assay
Readout kind: Max Inhibition (%), NFκB-luciferase, 10 pM hIL-36γ
Please respond with the number in % and leave the unit unwritten.

Study these solved cases before continuing.
binder="H4H14728P (antibody, human IgG4 S228P, kappa, V domains shown) VH: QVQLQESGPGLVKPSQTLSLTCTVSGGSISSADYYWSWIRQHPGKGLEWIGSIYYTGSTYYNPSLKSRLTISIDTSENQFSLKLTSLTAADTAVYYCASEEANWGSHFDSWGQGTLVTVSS VL: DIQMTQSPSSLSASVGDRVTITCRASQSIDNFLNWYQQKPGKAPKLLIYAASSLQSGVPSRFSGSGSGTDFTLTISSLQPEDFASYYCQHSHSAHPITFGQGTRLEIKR" recorded_value=99
binder="H4H14709P (antibody, human IgG4 S228P, kappa, V domains shown) VH: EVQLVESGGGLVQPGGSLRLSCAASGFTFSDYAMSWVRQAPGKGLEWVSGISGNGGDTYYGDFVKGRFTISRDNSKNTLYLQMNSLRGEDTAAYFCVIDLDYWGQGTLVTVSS VL: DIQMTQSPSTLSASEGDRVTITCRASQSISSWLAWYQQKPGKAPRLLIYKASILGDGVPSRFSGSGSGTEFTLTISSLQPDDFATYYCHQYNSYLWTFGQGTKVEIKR" recorded_value=24

Requested field: Max Inhibition (%), NFκB-luciferase, 10 pM hIL-36γ. Item: H4H14708P2 (antibody, human IgG4 S228P, kappa, V domains shown) VH: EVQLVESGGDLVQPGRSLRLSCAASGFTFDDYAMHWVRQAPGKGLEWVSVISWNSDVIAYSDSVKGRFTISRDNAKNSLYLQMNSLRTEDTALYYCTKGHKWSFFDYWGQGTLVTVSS VL: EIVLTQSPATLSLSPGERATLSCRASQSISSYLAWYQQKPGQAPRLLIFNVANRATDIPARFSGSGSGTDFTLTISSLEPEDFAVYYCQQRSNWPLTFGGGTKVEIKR
99
